Protein target, amino acids: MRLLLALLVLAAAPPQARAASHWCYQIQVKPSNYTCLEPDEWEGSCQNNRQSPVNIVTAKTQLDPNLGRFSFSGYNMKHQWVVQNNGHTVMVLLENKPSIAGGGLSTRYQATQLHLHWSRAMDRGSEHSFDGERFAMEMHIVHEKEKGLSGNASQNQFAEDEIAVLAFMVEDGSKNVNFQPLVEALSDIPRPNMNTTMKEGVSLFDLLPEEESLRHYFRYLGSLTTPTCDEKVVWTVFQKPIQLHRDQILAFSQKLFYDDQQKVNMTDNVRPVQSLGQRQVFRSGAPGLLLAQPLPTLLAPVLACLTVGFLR
The following compounds are listed with their measured log10(Ki) values.
A difference of one corresponds to tenfold Ki; all values are log10 with Ki in nM.

{"Structure Smiles String": "NS(=O)(=O)c1ccc(CONC(=O)c2cccc(C(=O)O)n2)cc1", "Attribute Measured": "log10(Ki)", "Numeric Readout": 2.08}
{"Structure Smiles String": "NS(=O)(=O)c1ccc(CCONC(=O)c2cccc(C(=O)O)n2)cc1", "Attribute Measured": "log10(Ki)", "Numeric Readout": 2.02}

Item `Nc1ccc(S(N)(=O)=O)cc1I` has what recorded log10(Ki)?
2.10

# query: log10(Ki) of entry `NS(=O)(=O)c1nc2ccc(OCCO)cc2s1`
1.18

Look at this compound and give its reported log10(Ki). `NS(=O)(=O)c1ccc(N2C(=O)c3cccnc3C2=O)cc1`
2.23

Requested field: log10(Ki). Item: `NS(=O)(=O)c1ccc(NC(=O)c2cccc(C(=O)O)n2)c(Cl)c1`
1.82

Fill in: log10(Ki) of `NS(=O)(=O)c1ccccc1NC(=O)c1cccc(C(=O)O)n1` is ___
2.48

For `NS(=O)(=O)c1nnc(N2C(=O)c3cccnc3C2=O)s1` , what is its reported log10(Ki)?
1.26

For `NS(=O)(=O)c1nnc(NC(=O)c2cccc(C(=O)O)n2)s1` , what is its reported log10(Ki)?
1.32

Query (compound): `NS(=O)(=O)c1ccc(CCO)cc1` ; field requested: log10(Ki)
2.65

====

# Lookup of reported pKi keyed by entry
Biological target: Carbonic anhydrase 2 (Homo sapiens, UniProt P00918)
Recall that pKi is obtained by taking minus log10 of the concentration measured in molar.

See these solved cases before continuing.
{"Structure Smiles String": "NS(=O)(=O)c1ccc(NC(=O)c2cccc(C(=O)O)n2)c(F)c1", "pKi": 8.10}
{"Structure Smiles String": "NS(=O)(=O)c1ccc(CCN2C(=O)c3cccnc3C2=O)cc1", "pKi": 8.05}
{"Structure Smiles String": "NS(=O)(=O)c1nnc(NC(=O)c2cccc(C(=O)O)n2)s1", "pKi": 8.22}

Here is the next item to consider.
Request: pKi, test system Carbonic anhydrase 2 (Homo sapiens, UniProt P00918), entry `NS(=O)(=O)c1ccc(CCONC(=O)c2cccc(C(=O)O)n2)cc1`
7.82

====

Target: UniProt P00915
Sequence (P00915 whole entry): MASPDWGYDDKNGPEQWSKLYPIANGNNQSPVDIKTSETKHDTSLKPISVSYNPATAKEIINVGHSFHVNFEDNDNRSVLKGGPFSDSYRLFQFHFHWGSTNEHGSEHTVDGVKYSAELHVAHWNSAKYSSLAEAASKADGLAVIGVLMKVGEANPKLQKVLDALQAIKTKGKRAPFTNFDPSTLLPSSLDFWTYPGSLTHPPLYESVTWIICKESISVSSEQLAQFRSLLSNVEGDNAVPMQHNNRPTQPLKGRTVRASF
Rule: Ki below 400 nM gives Criterion met. Equal to or above 400 nM gives Criterion not met.

Examples from the recorded data:
{"Structure Smiles String": "Cn1nc(S(N)(=O)=O)s/c1=N\\C(=O)c1cccc(C(=O)O)n1", "Measurement Target": "UniProt P00915", "Group": "Criterion met"}
{"Structure Smiles String": "NS(=O)(=O)c1ccc(N2C(=O)c3cccnc3C2=O)c(I)c1", "Measurement Target": "UniProt P00915", "Group": "Criterion not met"}
{"Structure Smiles String": "NS(=O)(=O)c1nc2ccc(OCCONC(=O)c3cccc(C(=O)O)n3)cc2s1", "Measurement Target": "UniProt P00915", "Group": "Criterion met"}

Now let's try a different one.
Quick check: Ki of `Nc1c(S(N)(=O)=O)cc(S(N)(=O)=O)c(Cl)c1Cl` under 400 nM?
Criterion not met
